B1: Nuclear receptor subfamily 4 group A member 2, residues 260 to 336; numbered along this chain, P43354 (parent)
chain: EGLCAVCGDNAACQHYGVRTCEGCKGFFKRTVQKNAKYVCLANKNCPVDKRRRNRCQYCRFQKCLAVGMVKEVVRTD

variants of: B1; assay: abundance fitness (aPCA) (normalised: wild type 0, dead -1); higher = more abundant; growth selection in yeast, the domain comes from the species named; details: Homo sapiens
Where abundance fitness equals or exceeds -0.08, the correct label is T; where it does not, the label is F.

The examples below pair each entry with its known result.
{"columns": ["variant.label", "class.name"],
 "data": [
  ["F27A", "F"],
  ["N35I", "F"],
  ["M69S", "F"]
]}

Determine whether this variant has abundance fitness no lower than -0.08: R19H
T

Determine whether this variant has abundance fitness no lower than -0.08: R51V
T

Determine whether this variant has abundance fitness no lower than -0.08: K71Y
T

Determine whether this variant has abundance fitness no lower than -0.08: V32L
F

Source of measurements: the Human Domainome abundance scans (Beltran et al. 2025)
